Attribution: paper PMC3563628

- Target under test: T1, DFNB31_1/R145E (with Y167W) (human, UniProt Q9P202 136-224, R145E | Y167W)
- T1 construct: first PDZ domain of human DFNB31 (whirlin); predicted PDZ domain with ten amino acids added on each side
- T1 sequence: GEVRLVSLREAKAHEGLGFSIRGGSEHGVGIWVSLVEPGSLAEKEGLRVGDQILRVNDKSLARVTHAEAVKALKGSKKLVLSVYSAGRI
- Procedure summary: other fluorescence titration; equilibrium titration of peptide into Trp-engineered PDZ domain kept constant at 3 µM, followed by intrinsic tryptophan fluorescence; 25°C, 25 mM HEPES, 150 mM NaCl, pH 7.2, 1 mM beta-mercaptoethanol
- Condition details: both partners purified
Measured endpoint: pKd
One number for each entry, as −log10 of the molar value.

Output pKd of FTDTHL (last six residues; also called FTDTHL peptide; source: synthetic peptide, bought: GeneCust (purity >95%)) [C-terminal peptide of usher (FTDTHL)]
4.15
